System: Pseudomonas aeruginosa IS 5563
test.protocol: Antimicrobial MIC / checkerboard assay for synergy with meropenem
Format: cell-based
applied.conditions: P. aeruginosa IS 5563; meropenem + compound, checkerboard
Recorded FIC for the following molecules
value.kind: FIC

[[record]]
smiles_record = "O=C(Cc1ccc(F)cc1)N[C@@H]1C(=O)N2C(C(=O)O)=C(CSC(=O)c3ccccc3)CS[C@H]12"
observed = 0.1269

[[record]]
smiles_record = "O=C(Cc1ccc(Cl)cc1)N[C@@H]1C(=O)N2C(C(=O)O)=C(CSC(=O)c3ccccc3)CS[C@H]12"
observed = 0.2519

[[record]]
smiles_record = "COc1cccc(CC(=O)N[C@@H]2C(=O)N3C(C(=O)O)=C(CSC(=O)c4ccccc4)CS[C@H]23)c1"
observed = 0.2519

